Origin of values: the Deep4Chem optical property database

Experiment: solvent given as SMILES
Details: in Cc1ccccc1
Reported absorption maximum is given for each of the following compounds.
Give a bare numeral; the unit nm is implied.

Solved entries (count: 3):
1) c1ccc(N(c2ccccc2)c2cc3c4c(c2)N(c2ccccc2)c2cc5c(cc2B4c2ccccc2N3c2ccccc2)B2c3ccccc3N(c3ccccc3)c3cc(N(c4ccccc4)c4ccccc4)cc(c32)N5c2ccccc2)cc1 457
2) CCCCN1C(=O)C(=C/C=C/C=C/C=C2N(CCCC)c3ccccc3N2CCCC)C(=O)N(CCCC)C1=S 689
3) CCOCCC1=Cc2nc1ccc1[nH]c(cc1CCOCC)c1nc(ccc3[nH]c2cc3CCOCC)C(CCOCC)=C1 638

Turning to the following compound.
Please give the documented absorption maximum of `CC(C)(C)c1ccc(C2=c3sc4ccccc4c3=[N+]3C2=Nc2c(-c4ccc(C(C)(C)C)cc4)c4sc5ccccc5c4n2[B-]3(F)F)cc1`
715

###

Assay: solvent given as SMILES
Settings: in CC#N
Please enter T where absorption maximum is greater than or equal to 400 nm, and F where it is lower.

Previously resolved entries follow.
compound	label
O=c1oc2cc3ccccc3cc2nc1-c1ccccc1	F
Nc1ccc2c(c1)C(=O)c1ccccc1-2	T
COc1ccc(/C=C/C(=O)c2c(O)cc(C)oc2=O)cc1	F
CCN(CC)c1ccc2nc3c4ccccc4c(=O)cc-3oc2c1	T
CCOC(=O)c1c2c3c(ccc([N+](=O)[O-])c3c3cc4c(cc13)[Si](C)(C)O[Si]4(C)C)N(C)C2=O	F
CCN(CC)c1ccc(/C=N/C(C#N)=C(C#N)/N=C/c2ccc(N(CC)CC)cc2O)c(O)c1	T
CNc1cccc2c1C(=O)c1ccccc1C2=O	T
CC(C)(C)c1ccc(-c2nc3c4ccccc4c4ccccc4c3n2-c2ccc(C(C)(C)C)cc2)cc1	F

Answer whether absorption maximum of `CCCCCCC(CCCCCC)n1c(=O)c2c3ccc4cccc5c6cccc7ccc(c2c1=O)c(c76)c3c45` is greater than or equal to 400 nm.
F

Identify whether the reported absorption maximum of the following compound is 400 nm or greater: `Cc1ccc(C2=C3C=C(I)C(I)=[N+]3[B-](F)(F)n3c2cc(I)c3I)cc1`
T

Textbook exercise: given the entry `CC1(C)CC(=O)c2c(F)c(F)c(F)c(F)c2N1` , state whether its absorption maximum is greater than or equal to 400 nm.
F

Dear colleague, could you confirm whether `COc1ccc(-n2c(C)ccc2C)cc1` has absorption maximum at or above 400 nm?
F

hey, is absorption maximum for this one >= 400 nm? `CCOC(=O)CC[N+]1=c2cc3c(cc2CCC1)=Cc1c(c2ccc(N(C)C)cc2oc1=O)O3`
T

Check this compound for absorption maximum at or above 400 nm: `N#Cc1cccc2[nH]ccc12`
F

Does the reported absorption maximum for `CCc1ccc(/C=C/c2ccc(-c3nnc(-c4ccc(-c5cc6ccccc6s5)cc4)o3)cc2)cc1` fall at or above the 400 nm mark?
F

Given the entry CCC1=C(C)C2=Cc3c4ccccc4c4n3[B-](c3ccncc3)(Oc3ccccc3-4)[N+]2=C1C=Cc1ccc(OC)cc1 (stereo unspecified) , answer whether its absorption maximum meets or surpasses 400 nm.
T

###

# absorption maximum listing for each entry below
Assay: solvent given as SMILES
Settings: in ClC(Cl)Cl
Just the number in nm, nothing appended.

1. C(#Cc1ccccc1)c1ccccc1 299
2. CCCCOc1ccc(-c2cc3c(o2)c(-c2ccc(OCCCC)cc2)c2n3[B-](F)(F)[N+]3=Cc4c(-c5ccc(OCCCC)cc5)c5oc(-c6ccc(OCCCC)cc6)cc5n4[B-](F)(F)[N+]3=C2)cc1 624
3. CN(C)c1ccc(-c2cc(-c3cccs3)nc(-c3ccccc3)n2)cc1 371

Report absorption maximum for `F[B-]1(F)n2c(ccc2-c2cccs2)C(c2ccc(Br)cc2)=C2C=CC(c3cccs3)=[N+]21`
622

Tell us which absorption maximum value is on record for `COc1ccc(C2=[N+]3C(=Nc4c(-c5ccccc5)cc(-c5ccc(OC)cc5)n4[B-]3(F)F)C(c3ccccc3)=C2)cc1`
688

Tell us which absorption maximum value is on record for `CC(C)(C)c1ccc2c(c1)c1cc(C(C)(C)C)ccc1n2-c1cccc(-c2nc(-c3cccc(-n4c5ccc(C(C)(C)C)cc5c5cc(C(C)(C)C)ccc54)c3)nc(-c3cccc(P(=O)(c4ccccc4)c4ccccc4)c3)n2)c1`
344.36

Could you please provide reported absorption maximum for `CCCCCCCCc1ccc(-c2c3cc(-c4cc(CCCCCCCC)c(-c5ccc(-c6sc(/C=C7\SC(N8CCCCC8)=NC7=O)cc6CCCCCCCC)s5)s4)sc3c(-c3ccc(CCCCCCCC)s3)c3cc(-c4cc(CCCCCCCC)c(-c5ccc(-c6sc(/C=C7\SC(N8CCCCC8)=NC7=O)cc6CCCCCCCC)s5)s4)sc23)s1` ? Thanks!
475

###

Test: solvent given as SMILES
Settings: in C1CCOC1
Catalogue of absorption maximum values

Some compounds with recorded absorption maximum:
1) CCCCCCCCCCCCOc1cc(/C=C/c2ccc3c(c2)C(CC)(CC)c2cc(N4c5ccccc5Sc5ccccc54)ccc2-3)c(OCCCCCCCCCCCC)cc1/C=C/c1ccc2c(c1)C(CC)(CC)c1cc(N3c4ccccc4Sc4ccccc43)ccc1-2 442.41 nm
2) O=C1/C(=C\c2ccc3oc4ccccc4c3c2)S(=O)(=O)c2ccccc21 368 nm
3) CCN1c2ccc(-c3cc(C(F)(F)F)[nH]n3)cc2Sc2cc(-c3cc(C(F)(F)F)[nH]n3)ccc21 336 nm
4) c1ccc(-c2oc(-c3ccccc3)c3ccccc23)cc1 413 nm
5) Cc1ccc(-n2c(-c3ccc(C(F)(F)F)cc3)nc(-c3ccccc3O)c2-c2ccccc2O)cc1 314 nm
6) F[B-]1(F)N(c2ccccc2)C=Cc2cccc[n+]21 425 nm
7) Cn1c(/C=C/c2ccc(/C=C/c3nc4ccccc4[nH]3)cc2)[n+](C)c2ccccc21 363 nm
8) CCn1c2sccc2c2c3nsnc3c3c4ccsc4n(CC)c3c21 424 nm

Turning now to a further record.
State, in one line, measured absorption maximum of `[O-]c1ccccc1/C=N/c1ccccc1/N=C/c1ccccc1[O-]`
380 nm

###

Test: solvent given as SMILES
Details: in C1CCOC1
Below, each of the compounds is paired with its reported absorption maximum value.
Output spec: scalar in nm, unitless text.

Record excerpt, results attached:
compound	absorption maximum, nm
CCCCC1(CCCC)c2cc(C#Cc3ccc4ccc5cccc6ccc3c4c56)ccc2-c2ccc(C#Cc3ccc4ccc5cccc6ccc3c4c56)cc21	421
CCCc1ccc2c(c1)cc1n2B2c3c4c-1cccc4cc1cccc(c31)-c1cc3cc(CCC)ccc3n12	537
COC(=O)C(Cc1ccc2oc(-c3ccc(-n4c5ccccc5c5ccccc54)cc3)nc2c1)NC(=O)OC(C)(C)C (configuration not stated)	341.8
COc1cc2c3cc(OC)c(OC)cc3c3cc4c(C)cc(=O)oc4cc3c2cc1OC	366
CCCCCCCCN1c2ccc(C#Cc3ccc(F)cc3)cc2Sc2cc(C=O)ccc21	378
O=C(c1ccc(C(=C(c2ccc(C(=O)c3ccc(-n4c5ccccc5c5ccccc54)cc3)cc2)c2ccc(C(=O)c3ccc(-n4c5ccccc5c5ccccc54)cc3)cc2)c2ccccc2)cc1)c1ccc(-n2c3ccccc3c3ccccc32)cc1	340
C1=C(c2ccccc2)C=C(c2ccccc2)/C1=C/C1CCCCC1	365
COc1ccc(OC)c(C=O)c1	349

Turning now to a further compound:
Give absorption maximum for the following compound: `N#Cc1c(N2CCCCC2)cc(-c2cccc3ccccc23)c2c1CCc1ccccc1-2`
353

###

Measured absorption maximum, listed per entry for reference.
Experiment: solvent given as SMILES
Details: in ClC(Cl)Cl
Supply the numeric figure in nm, leaving out any unit text.

compound	absorption maximum, nm
CC(C)(C)c1ccc2c(c1)c1cc(C(C)(C)C)ccc1n2-c1ccc2oc3nc4oc5cc(C(F)(F)F)ccc5c4cc3c2c1	346
Cc1nc2c(ccc3c2sc(/C=C/C=C/c2ccc(N(C)C)cc2)[n+]3C)s1	617
COc1ccc2cc(-c3ccc([N+](=O)[O-])cc3)ccc2c1	346
Oc1ccc(/N=C/c2ccccc2Oc2ccccc2)cc1	343
COc1ccc2c(-c3nc(-c4ccccc4F)no3)cc(=O)oc2c1	339

Tell me measured absorption maximum for `CC(C)(C)c1ccc2c(c1)c1cc(C(C)(C)C)ccc1n2-c1ccccc1-c1nc(-c2ccccc2-n2c3ccc(C(C)(C)C)cc3c3cc(C(C)(C)C)ccc32)nc(-c2ccccc2P(=O)(c2ccccc2)c2ccccc2)n1` please.
343.17

Output absorption maximum of Cc1ccc(C2=C(/C=C/C(=O)OC3CC[C@@]4(C)C(=CC[C@H]5[C@@H]6CC[C@H]([C@H](C)CCCC(C)C)[C@@]6(C)CC[C@@H]54)C3)C(c3ccc(C)cc3)=[N+]3C2=Nc2c(-c4ccc(C)cc4)c(Br)c(-c4ccc(C)cc4)n2[B-]3(F)F)cc1 (some centres not stated)
662
